Data origin: the supplement of paper PMC10567573

B1: MMP1 (parent)
chain: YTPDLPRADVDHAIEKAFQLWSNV

variants of: B1; assay: protein stability index of a GFP-peptide fusion (GPS, HEK-293T) (PSI 1-6); higher = more stable; conditions: c terminus: a fixed tail appended;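 note: lentivirally expressed fusions sorted by FACS into six bins by GFP to DsRed ratio, PSI derived from sequencing read proportions per bin multiplied by bin number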
Rule: Criterion met for protein stability index not less than 2, Criterion not met for anything less.

*Q* Dear colleague, could you confirm whether `A8Q` has protein stability index at or above 2?
*A* Criterion not met

*Q* Has `R7K` a recorded protein stability index greater than or equal to 2?
*A* Criterion met

*Q* Record `D4E` ; criterion: protein stability index no lower than 2. Met?
*A* Criterion not met

*Q* Has `S22R` a recorded protein stability index greater than or equal to 2?
*A* Criterion not met

*Q* Please check the record `S22D` and state if its protein stability index is at or above 2.
*A* Criterion met

*Q* Is protein stability index for `D4W` at or above 2?
*A* Criterion not met

*Q* protein stability index >= 2 for `A17N` ?
*A* Criterion not met

*Q* API: above_or_equal(metric=protein stability index, cutoff=2) for item `K16P`
*A* Criterion not met

*Q* Could you tell me if the measured protein stability index of `T2W` reaches 2 or more?
*A* Criterion met

*Q* Given the entry `Q19T` , answer whether its protein stability index meets or surpasses 2.
*A* Criterion met

*Q* Check the entry `T2K` : does protein stability index equal or exceed 2?
*A* Criterion met

*Q* Threshold query (protein stability index >= 2) on `F18I`
*A* Criterion met

*Q* Hi, just wondering whether `W21E` shows protein stability index of 2 or higher.
*A* Criterion met

*Q* Is reported protein stability index greater than or equal to 2 here: `R7D`
*A* Criterion not met

*Q* Test whether the variant `K16G` records protein stability index of 2 or higher.
*A* Criterion not met

*Q* Is the recorded value of protein stability index equal to or greater than 2 for this variant? `F18K`
*A* Criterion met

*Q* Has `T2G` a recorded protein stability index greater than or equal to 2?
*A* Criterion met

*Q* Could you please find out whether `T2E` has protein stability index that meets 2 or exceeds it?
*A* Criterion met

*Q* Is protein stability index for `H12C` at or above 2?
*A* Criterion not met

*Q* For this variant, is measured protein stability index 2 or higher? `A8P`
*A* Criterion not met
